# Tested on: Plasmodium falciparum
# procedure_details: GSK_TCMDC: Inhibition of Plasmodium falciparum Dd2 in whole red blood cells, using parasite LDH activity as an index of growth. Test compounds present at 2uM
# Format: functional
Would you kindly list Inhibition for each of these compounds?
In your response, the unit should come after the numeric value.

Inquiry: So what's the measured Inhibition for this one? CC(C)CCNc1nc(NCCCc2ccccc2)c2cc(O)ccc2n1
Reply text: 95%

Inquiry: Another: O=C(Nc1ccc(Cl)cc1)c1cccc(S(=O)(=O)NC2CCN(CC3CCCCC3)CC2)c1.O=C(O)C(F)(F)F
Reply text: 11%

Inquiry: Another: Cc1cc(C)c2nc(N3CCC(C(=O)NCCCN4CCC(N5CCCCC5)CC4)CC3)sc2c1
Reply text: 34%

Inquiry: Another: Cc1cccc2nc(-c3ccc(-c4cccc(CNCCCN5CCCC5=O)c4)s3)[nH]c12.O=C(O)C(F)(F)F
Reply text: 26%

Inquiry: Another: C=CCN1C(=O)C(C(C)=O)=C(O)C1c1ccccc1 (configuration not stated)
Reply text: 97%

Inquiry: Another: CC(C)CNCc1cccc(-c2ccc(CNc3ccc(C(=O)c4ccccc4)cc3)cc2)c1.O=C(O)C(F)(F)F
Reply text: 0%

Inquiry: Another: COc1ccc(C(=O)Nc2cc(Cl)c3c(c2)C2CCCN2CC3)cc1C(F)(F)F.Cl (configuration not stated)
Reply text: 33%

Inquiry: Another: CCCCCCc1c(C)nc2cc(OC)ccc2c1O
Reply text: 97%

Inquiry: Another: O=C(Nc1cccc(CN2CCCN(CCc3ccccc3)CC2)c1)c1ccc(Cl)c(Cl)c1.O=C(O)C(F)(F)F
Reply text: 15%

Inquiry: Another: O=C(NC1CC1)c1ccc(N2CCC(Oc3ccc(F)cc3)CC2)nc1
Reply text: 79%

Inquiry: Another: O=C(NCCCCCN1CCC(c2c[nH]c3ccccc23)CC1)Nc1cccc(C(F)(F)F)c1
Reply text: 11%

Inquiry: Another: CCN1CCC(N(CCCCCCCCc2ccc(C(F)(F)F)cc2)C(=O)Cn2c(CCc3cccc(F)c3F)cc(=O)c3ccccc32)CC1.O=C(O)C(O)C(O)C(=O)O
Reply text: 65%

Inquiry: Another: CC(=O)N(Cc1nc(-c2cc(C(F)(F)F)cc(C(F)(F)F)c2)cs1)c1c(C)cccc1C
Reply text: 99%

Inquiry: Another: Fc1cccc(Cl)c1-c1nc(NCCC(c2ccccc2)c2ccccc2)no1
Reply text: 87%

Inquiry: Another: Cc1cc2ccc(-c3cccc(CN)c3)cc2nc1N.Cl
Reply text: 1%

Inquiry: Another: O=C(NCCCCN1CCC(c2cccc3ccccc23)CC1)c1ccc(NC(=O)c2ccc(Cl)cc2)cc1
Reply text: 39%

Inquiry: Another: C=C[C@]1(C)C[C@@H](OC(=O)c2n[nH]c3ccccc3c2=O)[C@]2(C)[C@H](C)CC[C@]3(CCC(=O)[C@H]32)[C@@H](C)[C@@H]1O
Reply text: 84%

Inquiry: Another: CN1CCN(CC(=O)Nc2cccc(-c3ccc(-c4nc5cc(C(F)(F)F)ccc5[nH]4)cc3)c2)CC1
Reply text: 94%

Inquiry: Another: CC(C(=O)N1CCCC1)N1CCN(C(c2ccccc2)c2ccccc2)CC1 (configuration not stated)
Reply text: 56%

Inquiry: Another: Cc1ccc(C(=O)NC2C(=O)NC2c2ccccc2)c(C)c1 (configuration not stated)
Reply text: 0%

Inquiry: Another: CCn1c2ccccc2c2cc(C=NN=c3cc(C)[nH]c4ccccc34)ccc21
Reply text: 97%

Inquiry: Another: CC(C)C(=O)NC(Nc1ccc([N+](=O)[O-])cc1)C(Cl)(Cl)Cl (configuration not stated)
Reply text: 84%

Inquiry: Another: C[C@@H]1CN(C(c2cccc(O)c2)c2cccc(C(=O)N(C)c3cccc(F)c3)c2)[C@@H](C)CN1C(c1cccc(O)c1)c1cccc(C(=O)N(C)c2cccc(F)c2)c1.Cl (some centres not stated)
Reply text: 85%

Inquiry: Another: COc1ccccc1N1CCN(CCCCN(C(=O)Nc2cccc(Cl)c2)C(=O)Nc2cccc(Cl)c2)CC1.Cl
Reply text: 65%

Inquiry: Another: c1ccc(CNc2nc(NCCc3c[nH]cn3)nc(NCc3cccc4ccccc34)n2)cc1
Reply text: 1%

Inquiry: Another: Oc1c(C=Nn2cnnc2)sc2ccccc12
Reply text: 68%

Inquiry: Another: COc1cccc(CCc2cccc(CNC(C)=O)c2)c1
Reply text: 0%

Inquiry: Another: CC(C)CNCc1cccc(-c2ccccc2CN(C(=O)NCCc2ccccc2)C2CCN(Cc3ccccc3)CC2)c1.O=C(O)C(F)(F)F
Reply text: 82%

Inquiry: Another: Cn1cnc(CCNC(=O)c2ccc(-c3cccc(-c4nc5ccccc5[nH]4)c3)cc2)c1
Reply text: 14%

Inquiry: Another: Cc1ccc(O)cc1C[C@@H]1C(=O)CC[C@@]2(C)[C@H]1CC[C@]2(C)O
Reply text: 0%

Inquiry: Another: COc1cccc(-c2ccc(C(=O)NC3CCN(Cc4ccc(N(C)C)cc4)CC3)s2)c1.O=C(O)C(F)(F)F
Reply text: 20%

Inquiry: Another: CN(C)Cc1ccc(-c2cc3c(Nc4ccc(OCc5cccc(F)c5)c(Cl)c4)ncnc3s2)[nH]1
Reply text: 84%

Inquiry: Another: CCn1cc(C(=O)O)c(=O)c2cc(F)c(N3CCN(S(=O)(=O)c4ccc(N)cc4)CC3)cc21
Reply text: 79%

Inquiry: Another: CCOc1ccc(-c2n[nH]c(C(F)(F)F)c2-c2ccccc2OC)c(O)c1
Reply text: 12%

Inquiry: Another: NC1=NC(c2ccccc2)(c2ccccc2)C(=O)N1CCCCc1ccccn1
Reply text: 56%

Inquiry: Another: CCCNCc1ccc(-c2ccc(CN(C(=O)c3nn(-c4ccccc4)nc3C)C(C)CN(C)C)cc2)nc1.O=C(O)C(F)(F)F (configuration not stated)
Reply text: 95%

Inquiry: Another: CCN1CCN(CC(O)CNC(=O)Nc2ccc(Cl)cc2)CC1.O=C(O)C(F)(F)F (configuration not stated)
Reply text: 99%

Hey, just so you know, these numbers are from ChEMBL document CHEMBL1157539.
